# subjectOfTest: Prothrombin (Homo sapiens, UniProt P00734)
# assayComment: Thrombin 1536 HTS Dose Response Confirmation. [Related pubchem assays: 1046 (Thrombin 1536 HTS; hits were confirmed in this assay)]
# Type: functional
Activity calls are given as the source filed them. Rule as the data show it: actives have a measured IC50 and inactives only a lower limit.

compound: CC(=O)n1nc(-c2ccccc2)nc1NCc1ccc(N(C)C)cc1
IC50: 3.39 µM (active)
--
compound: O=C(CN1C(=O)CSc2ccccc21)N1CCc2ccccc21
IC50: > 50 µM (not active)
--
compound: COc1cccc(C(=O)NNC(=O)Cc2ccc([N+](=O)[O-])cc2)c1
IC50: > 50 µM (not active)
--
compound: Cc1ccc(NC(=O)CN(C)C(=O)CCC(=O)c2cccs2)cc1
IC50: > 50 µM (not active)
--
compound: O=C(c1ccc([N+](=O)[O-])cc1)n1nc(-c2ccccc2)nc1NCc1ccccc1
IC50: 0.0293 µM (active)
--
compound: NS(=O)(=O)c1ccc(CCNC(=O)Cc2ccccc2[N+](=O)[O-])cc1
IC50: > 50 µM (not active)
--
compound: CC(C)c1ccc(-c2noc(C3CCCN(C(=O)c4ccc(F)cc4F)C3)n2)cc1 (centres undefined)
IC50: > 50 µM (not active)
--
compound: CC(=O)n1nc(-c2ccccc2)nc1NCc1cccs1
IC50: 0.0965 µM (active)
--
compound: CSc1nc(-c2ccco2)nn1C(=O)CCc1ccccc1
IC50: 0.00551 µM (active)

Attribution: ChEMBL document CHEMBL1201862
